target: Heat shock protein HSP 90-beta (Homo sapiens); assay: Inhibition of Hsp90 in human A431 cells assessed as reduction in Akt protein expression after 24 hrs by Western blot analysis; assay type: cell-based; details: A-431

structure-as-smiles: CCNC(=O)c1noc(-c2cc(C(C)C)c(O)cc2O)c1NC(=O)C1CCCCC1
inhibition: Dose-dependent effect
--
structure-as-smiles: CCNC(=O)c1noc(-c2cc(C(C)C)c(O)cc2O)c1NC(=O)[C@H]1CC[C@@H](OC)CC1
inhibition: Dose-dependent effect
--
structure-as-smiles: CCNC(=O)c1noc(-c2cc(C(C)C)c(O)cc2O)c1NC(=O)C(C)(C)C
inhibition: Dose-dependent effect
--
structure-as-smiles: CCNC(=O)c1noc(-c2cc(C(C)C)c(O)cc2O)c1NC(=O)c1cc(CC)on1
inhibition: Dose-dependent effect
--
structure-as-smiles: CCNC(=O)c1noc(-c2cc(C(C)C)c(O)cc2O)c1NC(=O)c1sccc1C
inhibition: Dose-dependent effect
--
structure-as-smiles: CCNC(=O)c1noc(-c2cc(C(C)C)c(O)cc2O)c1NC(=O)c1ccc(CN2CCOCC2)cc1
inhibition: Dose-dependent effect

###

experiment: Toxicity in human A431 cells xenografted ip dosed CD1 Harlan mouse; format: organism-based, A-431; conditions: in vivo

structure-as-smiles: CCNC(=O)c1noc(-c2cc(C(C)C)c(O)cc2O)c1NC(=O)c1ccc(CN2CCOCC2)cc1
MTD: 60 mg/kg

structure-as-smiles: CCNC(=O)c1noc(-c2cc(C(C)C)c(O)cc2O)c1-c1ccc(CN2CCOCC2)cc1
MTD: 60 mg/kg

structure-as-smiles: CCNC(=O)c1noc(-c2cc(C(C)C)c(O)cc2O)c1NC(=O)c1cc(CN2CCOCC2)on1
MTD: 60 mg/kg

###

molecular target: Heat shock protein HSP 90-beta (Homo sapiens, UniProt P08238)
Sequence (P08238 whole entry): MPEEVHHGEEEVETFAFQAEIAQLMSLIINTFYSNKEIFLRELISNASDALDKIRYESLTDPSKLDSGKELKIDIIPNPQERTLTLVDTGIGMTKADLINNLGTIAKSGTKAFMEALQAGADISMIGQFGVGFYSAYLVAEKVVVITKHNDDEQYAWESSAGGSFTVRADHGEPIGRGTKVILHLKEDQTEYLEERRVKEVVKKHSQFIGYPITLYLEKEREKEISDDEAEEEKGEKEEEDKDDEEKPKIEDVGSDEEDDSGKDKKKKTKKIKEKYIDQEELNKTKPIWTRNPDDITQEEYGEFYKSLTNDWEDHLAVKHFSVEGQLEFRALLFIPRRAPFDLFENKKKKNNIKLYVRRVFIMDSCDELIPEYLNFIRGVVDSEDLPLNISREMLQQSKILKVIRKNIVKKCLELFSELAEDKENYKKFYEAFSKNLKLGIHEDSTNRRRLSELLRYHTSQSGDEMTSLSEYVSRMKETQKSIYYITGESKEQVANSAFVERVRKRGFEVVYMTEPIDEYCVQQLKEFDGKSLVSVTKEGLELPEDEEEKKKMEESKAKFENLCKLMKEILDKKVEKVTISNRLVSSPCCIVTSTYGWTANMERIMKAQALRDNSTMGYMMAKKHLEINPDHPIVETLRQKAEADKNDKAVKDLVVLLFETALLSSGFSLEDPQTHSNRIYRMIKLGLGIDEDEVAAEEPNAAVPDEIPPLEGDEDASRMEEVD
pIC50: −log10 of the molar value.

compound: CCNC(=O)c1noc(-c2cc(C(C)C)c(O)cc2O)c1NC(=O)C1CCN(C)CC1
target-under-test: Heat shock protein HSP 90-beta (Homo sapiens, UniProt P08238)
sign-qualifier: =
pIC50: 7.62

compound: CCNC(=O)c1noc(-c2cc(C(C)C)c(O)cc2O)c1NC(=O)[C@@H]1CC[C@H](CO)C1 (relative stereo)
target-under-test: Heat shock protein HSP 90-beta (Homo sapiens, UniProt P08238)
sign-qualifier: =
pIC50: 7.90

compound: CCNC(=O)c1noc(-c2cc(C(C)C)c(O)cc2O)c1NC(=O)c1sccc1C
target-under-test: Heat shock protein HSP 90-beta (Homo sapiens, UniProt P08238)
sign-qualifier: =
pIC50: 7.08

compound: CCNC(=O)c1noc(-c2cc(C(C)C)c(O)cc2O)c1NC(=O)[C@H]1CC[C@@H](C(N)=O)CC1
target-under-test: Heat shock protein HSP 90-beta (Homo sapiens, UniProt P08238)
sign-qualifier: >
pIC50: 8.30

###

target: UniProtKB P08238
pIC50: −log10 of the molar value.

structure-as-smiles: CCCCC[C@H]1CC[C@H](C(=O)Nc2c(C(=O)NCC)noc2-c2cc(C(C)C)c(O)cc2O)CC1
sign-qualifier: =
pIC50: 6.59

structure-as-smiles: CCNC(=O)c1noc(-c2cc(Cl)c(O)cc2O)c1NC(=O)c1sccc1C
sign-qualifier: =
pIC50: 7.13

structure-as-smiles: CCNC(=O)c1noc(-c2cc(C(C)C)c(O)cc2O)c1NC(=O)[C@H]1CC[C@@H](CN2CCOCC2)CC1
sign-qualifier: =
pIC50: 7.71

structure-as-smiles: CCNC(=O)c1noc(-c2cc(C(C)C)c(O)cc2O)c1NC(=O)c1ccc(N(C)C)cc1
sign-qualifier: =
pIC50: 7.47

structure-as-smiles: CCNC(=O)c1noc(-c2cc(Cl)c(O)cc2O)c1NC(=O)CCN1CCOCC1
sign-qualifier: =
pIC50: 6.77

structure-as-smiles: CCNC(=O)c1noc(-c2cc(C(C)C)c(O)cc2O)c1NC(=O)[C@H]1CC[C@H](CN2CCOCC2)CC1
sign-qualifier: =
pIC50: 8.06

structure-as-smiles: CCNC(=O)c1noc(-c2cc(C(C)C)c(O)cc2O)c1NC(=O)c1ccc2ccsc2c1
sign-qualifier: =
pIC50: 7.70

structure-as-smiles: CCNC(=O)c1noc(-c2cc(C(C)C)c(O)cc2O)c1NC(=O)[C@H]1CC[C@H](N2CCOCC2)CC1
sign-qualifier: >
pIC50: 8.30

structure-as-smiles: CCNC(=O)c1noc(-c2cc(C(C)C)c(O)cc2O)c1NC(=O)c1ccc(C)o1
sign-qualifier: >
pIC50: 8.30

structure-as-smiles: CCNC(=O)c1noc(-c2cc(Cl)c(O)cc2O)c1NC(=O)c1ccc(Br)cc1
sign-qualifier: =
pIC50: 6.82

structure-as-smiles: CCNC(=O)c1noc(-c2cc(C(C)C)c(O)cc2O)c1NC(=O)c1sc(C)nc1C
sign-qualifier: =
pIC50: 8.00

structure-as-smiles: CCNC(=O)c1noc(-c2cc(C(C)C)c(O)cc2O)c1NC(=O)c1ccc(N2CCCC2)cc1
sign-qualifier: =
pIC50: 7.66

structure-as-smiles: CCNC(=O)c1noc(-c2cc(Cl)c(O)cc2O)c1NC(=O)c1cc(OC)c(OC)c(OC)c1
sign-qualifier: =
pIC50: 6.89

structure-as-smiles: CCNC(=O)c1noc(-c2cc(C(C)C)c(O)cc2O)c1NC(=O)c1oc2ccc(OC)cc2c1C
sign-qualifier: =
pIC50: 7.32

structure-as-smiles: C=CC(=O)Nc1c(C(=O)NCC)noc1-c1cc(Cl)c(O)cc1O
sign-qualifier: =
pIC50: 6.78

structure-as-smiles: CCNC(=O)c1noc(-c2cc(C(C)C)c(O)cc2O)c1NC(=O)[C@H]1CC[C@H](CO)CC1
sign-qualifier: >
pIC50: 8.30

structure-as-smiles: CCNC(=O)c1noc(-c2cc(C(C)C)c(O)cc2O)c1NC(=O)[C@H]1CC[C@@H](CO)CC1
sign-qualifier: =
pIC50: 7.82

structure-as-smiles: CCNC(=O)c1noc(-c2cc(Cl)c(O)cc2O)c1NCc1sccc1C
sign-qualifier: =
pIC50: 6.64

structure-as-smiles: CCNC(=O)c1noc(-c2cc(Cl)c(O)cc2O)c1NC1CCN(C)CC1
sign-qualifier: =
pIC50: 5.80

structure-as-smiles: CCNC(=O)c1noc(-c2cc(Cl)c(O)cc2O)c1NC(=O)C12CC3CC(CC(C3)C1)C2
sign-qualifier: =
pIC50: 6.60

structure-as-smiles: CCNC(=O)c1noc(-c2cc(C(C)C)c(O)cc2O)c1NC(=O)C1CCNCC1
sign-qualifier: >
pIC50: 8.30

structure-as-smiles: CCNC(=O)c1noc(-c2cc(C(C)C)c(O)cc2O)c1NC(=O)c1ccc(CN2CCOCC2)cc1
sign-qualifier: =
pIC50: 7.15

structure-as-smiles: CCNC(=O)c1noc(-c2cc(C(C)C)c(O)cc2O)c1NC(=O)c1cc(CN2CCOCC2)on1
sign-qualifier: =
pIC50: 7.40

structure-as-smiles: CCNC(=O)c1noc(-c2cc(C(C)C)c(O)cc2O)c1NC(=O)[C@H]1CC[C@H](CNC)CC1
sign-qualifier: =
pIC50: 8.07

structure-as-smiles: CCNC(=O)c1noc(-c2cc(Cl)c(O)cc2O)c1NC1CCCCC1
sign-qualifier: =
pIC50: 6.21

structure-as-smiles: CCNC(=O)c1noc(-c2cc(C(C)C)c(O)cc2O)c1NC(=O)[C@H]1CC[C@H](C(N)=O)CC1
sign-qualifier: >
pIC50: 8.30

structure-as-smiles: CCNC(=O)c1noc(-c2cc(Cl)c(O)cc2O)c1NCc1ccc(OC)cc1
sign-qualifier: =
pIC50: 6.37

structure-as-smiles: CCNC(=O)c1noc(-c2cc(C(C)C)c(O)cc2O)c1NC(=O)[C@H]1CC[C@H](CNS(=O)(=O)c2ccc(F)cc2)CC1
sign-qualifier: =
pIC50: 8.27

structure-as-smiles: CCNC(=O)c1noc(-c2cc(C(C)C)c(O)cc2O)c1NC(=O)[C@H]1CC[C@@H](O)CC1
sign-qualifier: >
pIC50: 8.30

structure-as-smiles: CCNC(=O)c1noc(-c2cc(C(C)C)c(O)cc2O)c1NC(=O)[C@H]1CC[C@H](N)CC1
sign-qualifier: =
pIC50: 7.55

structure-as-smiles: CCNC(=O)c1noc(-c2cc(C(C)C)c(O)cc2O)c1NC(=O)c1nc(C)c(-c2ccc(F)cc2)s1
sign-qualifier: =
pIC50: 7.40

structure-as-smiles: CCNC(=O)c1noc(-c2cc(C(C)C)c(O)cc2O)c1NC(=O)c1cc(-c2ccccc2)on1
sign-qualifier: =
pIC50: 6.60

structure-as-smiles: CCNC(=O)c1noc(-c2cc(C(C)C)c(O)cc2O)c1NC(=O)C1CCCCC1
sign-qualifier: =
pIC50: 6.72

structure-as-smiles: CCNC(=O)c1noc(-c2cc(C(C)C)c(O)cc2O)c1NC(=O)CCN1CCN(C)CC1
sign-qualifier: =
pIC50: 6.92

structure-as-smiles: CCNC(=O)c1noc(-c2cc(C(C)C)c(O)cc2O)c1NC(=O)c1cccc2cccnc12
sign-qualifier: =
pIC50: 7.44

structure-as-smiles: CCNC(=O)c1noc(-c2cc(C(C)C)c(O)cc2O)c1NC(=O)c1sc(-c2ccncc2)nc1C
sign-qualifier: =
pIC50: 7.57
